Test system: MIA PaCa-2 cells
Experiment: In-vitro anti-proliferative activity in combination with gemcitabine on MIA PaCa-2 cells
Type: cell-based
Settings: 72 h, with 20 nM gemcitabine, read-out: in combination with 20 nM GMC IC50
Assignment: determine reported IC50 for the given compounds.

Consider the worked cases shown below.
{"Compound": "CN1CCc2c(cc(Nc3ncc(C#N)c(Nc4cccc(N=S(C)(C)=O)n4)n3)cc2N2CCOCC2)C1", "Measurement target": "MIA PaCa-2 cells", "IC50": "1.3 nM"}
{"Compound": "COCc1cc(Nc2ncc(C#N)c(Nc3cccc(N=S(C)(C)=O)n3)n2)cc2c1CCN(C)C2", "Measurement target": "MIA PaCa-2 cells", "IC50": "2.7 nM"}
{"Compound": "CN1CCN(c2ccc(Nc3ncc(C#N)c(Nc4cccc(N=S(C)(C)=O)n4)n3)cc2)CC1", "Measurement target": "MIA PaCa-2 cells", "IC50": "7.5 nM"}
{"Compound": "CN1CCc2c(CO)cc(Nc3ncc(C#N)c(Nc4cccc(N=S(C)(C)=O)n4)n3)cc2C1", "Measurement target": "MIA PaCa-2 cells", "IC50": "6.7 nM"}
{"Compound": "CN1CCc2c(cc(Nc3ncc(C#N)c(Nc4cccc(N=S(C)(C)=O)n4)n3)cc2C2=CCCC2)C1", "Measurement target": "MIA PaCa-2 cells", "IC50": "11 nM"}
{"Compound": "CCN1CCc2c(cc(Nc3ncc(C#N)c(Nc4cccc(N=S(C)(C)=O)n4)n3)cc2C2CC2)C1", "Measurement target": "MIA PaCa-2 cells", "IC50": "3.3 nM"}
{"Compound": "CN1CCc2ccc(Nc3ncc(Br)c(Nc4cccc(N=S(C)(C)=O)n4)n3)cc2C1", "Measurement target": "MIA PaCa-2 cells", "IC50": "16 nM"}
{"Compound": "CN1CCc2c(cc(Nc3ncc(C#N)c(Nc4cccc(N=S(C)(C)=O)n4)n3)cc2C2=CCOCC2)C1", "Measurement target": "MIA PaCa-2 cells", "IC50": "1.1 nM"}
{"Compound": "CN1Cc2cc(Nc3ncc(C#N)c(Nc4cccc(N=S(C)(C)=O)n4)n3)ccc2C2(CC2)C1", "Measurement target": "MIA PaCa-2 cells", "IC50": "3.7 nM"}
{"Compound": "CN1CCc2ccc(Nc3ncc(P(C)(C)=O)c(Nc4cccc(N=S(C)(C)=O)n4)n3)cc2C1", "Measurement target": "MIA PaCa-2 cells", "IC50": "> 100 nM"}

For each entry beneath this line, provide reported IC50.
1. CN1CCc2ccc(Nc3ncc(C#N)c(Oc4cccc(N=S(C)(C)=O)n4)n3)cc2C1
2. CN1CCN(c2cc(Nc3ncc(C#N)c(Nc4cccc(N=S(C)(C)=O)n4)n3)cc3c2CCN(C)C3)CC1
3. C[C@@H]1CN(c2cc(Nc3ncc(C#N)c(Nc4cccc(N=S(C)(C)=O)n4)n3)cc3c2CCN(C)C3)C[C@@H](C)O1
4. CN1CCc2c(cc(Nc3ncc(C#N)c(Nc4cccc(N=S(C)(C)=O)n4)n3)cc2C2CCCC2)C1
5. C=C(C)c1cc(Nc2ncc(C#N)c(Nc3cccc(N=S(C)(C)=O)n3)n2)cc2c1CCN(C)C2
6. Cc1cc(Nc2ncc(C#N)c(Nc3cccc(N=S(C)(C)=O)n3)n2)cc(C)c1N1CCN(C)CC1
7. CN1CCc2c(F)cc(Nc3ncc(C#N)c(Nc4cccc(N=S(C)(C)=O)n4)n3)cc2C1
8. CN1CCc2ccc(Nc3ncc(C#N)c(Nc4cccc(N=S(C)(C)=O)c4)n3)cc2C1

[A]
["> 100 nM", "2.6 nM", "49 nM", "2.1 nM", "1.8 nM", "2.4 nM", "18.6 nM", "34 nM"]

Data origin, for the record: patent US20240158369A1
